Test system: PC-3 cells
protocol: Alamar Blue growth inhibition of PC-3 cells
Type: cell-based, human
measurementConditions: 73 hrs; read-out: Est IC50
measurementName: IC50 (µM)

• Nc1c(-c2ccccc2)nc(Cl)c2c(=O)[nH][nH]c(=O)c12 [SEM-007, L-012] = 140

====

Tested on: PC-3 cells
protocol: Alamar Blue growth inhibition of PC-3 cells
Format: cell-based, human
measurementConditions: Homo sapiens, PC-3; 48 hrs; read-out: Est IC50
measurementName: IC50 (µM)

- O=c1[nH][nH]c(=O)c2c(O)c(-c3ccccc3)ncc12 [SEM-009]: 100
